Could you please report measured pIC50 for the items listed next?
Please keep in mind that pIC50 is minus log10 of the molar concentration; only the number is needed.

input: Record lookup: for Acetylcholinesterase (Electrophorus electricus, UniProt O42275), what pIC50 belongs to COc1cc2c(cc1OC)C(=O)C(CC1CCN(Cc3ncccc3C)CC1)C2 (stereo unspecified) ?
output: 6.97

input: Record lookup: for Acetylcholinesterase (Electrophorus electricus, UniProt O42275), what pIC50 belongs to COc1cc2c(cc1OC)C(=O)C(CC1CCN(Cc3ccc([N+](=O)[O-])cc3)CC1)C2 (stereo unspecified) ?
output: 5.40

input: Record lookup: for Acetylcholinesterase (Electrophorus electricus, UniProt O42275), what pIC50 belongs to COc1cc2c(cc1OC)C(=O)C(CC1CCN(Cc3cccc(F)c3)CC1)C2 (stereo unspecified) ?
output: 7.17

input: Record lookup: for Acetylcholinesterase (Electrophorus electricus, UniProt O42275), what pIC50 belongs to COc1cc2c(cc1OC)C(=O)C(CC1CCN(Cc3ccc(Cl)cc3)CC1)C2 (stereo unspecified) ?
output: 5.32

input: Record lookup: for Acetylcholinesterase (Electrophorus electricus, UniProt O42275), what pIC50 belongs to COc1cc2c(cc1OC)C(=O)C(CC1CCN(Cc3cccc(Cl)n3)CC1)C2 (stereo unspecified) ?
output: 6.39

input: Record lookup: for Acetylcholinesterase (Electrophorus electricus, UniProt O42275), what pIC50 belongs to COc1cc2c(cc1OC)C(=O)C(CC1CCN(Cc3ccccc3F)CC1)C2 (stereo unspecified) ?
output: 7.37

input: Record lookup: for Acetylcholinesterase (Electrophorus electricus, UniProt O42275), what pIC50 belongs to COc1cc2c(cc1OC)C(=O)C(CC1CCN(Cc3cccc(C)n3)CC1)C2 (stereo unspecified) ?
output: 7.07

input: Record lookup: for Acetylcholinesterase (Electrophorus electricus, UniProt O42275), what pIC50 belongs to COc1cc2c(cc1OC)C(=O)C(CC1CCN(Cc3ccc(F)cc3)CC1)C2 (stereo unspecified) ?
output: 6.89

input: Record lookup: for Acetylcholinesterase (Electrophorus electricus, UniProt O42275), what pIC50 belongs to COc1cc2c(cc1OC)C(=O)C(CC1CCN(Cc3cccc(C)c3)CC1)C2 (stereo unspecified) ?
output: 6.97

input: Record lookup: for Acetylcholinesterase (Electrophorus electricus, UniProt O42275), what pIC50 belongs to COc1cc2c(cc1OC)C(=O)C(CC1CCN(Cc3ccc4cccc(O)c4n3)CC1)C2 (stereo unspecified) ?
output: 5.19

input: Record lookup: for Acetylcholinesterase (Electrophorus electricus, UniProt O42275), what pIC50 belongs to COc1cc2c(cc1OC)C(=O)C(CC1CCN(Cc3ccccc3[N+](=O)[O-])CC1)C2 (stereo unspecified) ?
output: 6.97

input: Record lookup: for Acetylcholinesterase (Electrophorus electricus, UniProt O42275), what pIC50 belongs to COc1cc2c(cc1OC)C(=O)C(CC1CCN(Cc3cccc([N+](=O)[O-])c3)CC1)C2 (stereo unspecified) ?
output: 6.38

input: Record lookup: for Acetylcholinesterase (Electrophorus electricus, UniProt O42275), what pIC50 belongs to COc1cc2c(cc1OC)C(=O)C(CC1CCN(Cc3ccc(C)cc3)CC1)C2 (stereo unspecified) ?
output: 6.66

input: Record lookup: for Acetylcholinesterase (Electrophorus electricus, UniProt O42275), what pIC50 belongs to COc1cc2c(cc1OC)C(=O)C(CC1CCN(Cc3ccc4ccccc4n3)CC1)C2 (stereo unspecified) ?
output: 5.06

input: Record lookup: for Acetylcholinesterase (Electrophorus electricus, UniProt O42275), what pIC50 belongs to COc1cc2c(cc1OC)C(=O)C(CC1CCN(Cc3ccccc3Cl)CC1)C2 (stereo unspecified) ?
output: 7.22

input: Record lookup: for Acetylcholinesterase (Electrophorus electricus, UniProt O42275), what pIC50 belongs to COc1cc2c(cc1OC)C(=O)C(CC1CCN(Cc3cccc(Cl)c3)CC1)C2 (stereo unspecified) ?
output: 6.63

input: Record lookup: for Acetylcholinesterase (Electrophorus electricus, UniProt O42275), what pIC50 belongs to COc1cc2c(cc1OC)C(=O)C(CC1CCN(Cc3cccc(F)n3)CC1)C2 (stereo unspecified) ?
output: 6.61

input: Record lookup: for Acetylcholinesterase (Electrophorus electricus, UniProt O42275), what pIC50 belongs to COc1cc2c(cc1OC)C(=O)C(CC1CCN(Cc3ccc(C(F)(F)F)cc3)CC1)C2 (stereo unspecified) ?
output: 5.69

input: Record lookup: for Acetylcholinesterase (Electrophorus electricus, UniProt O42275), what pIC50 belongs to COc1cc2c(cc1OC)C(=O)C(CC1CCN(Cc3cccc(C(F)(F)F)c3)CC1)C2 (stereo unspecified) ?
output: 6.71

input: Record lookup: for Acetylcholinesterase (Electrophorus electricus, UniProt O42275), what pIC50 belongs to COc1cc2c(cc1OC)C(=O)C(CC1CCN(Cc3ncc(C)cc3C)CC1)C2 (stereo unspecified) ?
output: 6.00

input: Record lookup: for Acetylcholinesterase (Electrophorus electricus, UniProt O42275), what pIC50 belongs to COC(=O)c1cccc(CN2CCC(CC3Cc4cc(OC)c(OC)cc4C3=O)CC2)n1 (stereo unspecified) ?
output: 6.29

* * *

# Assay System: UniProtKB P06276
# Sequence (P06276 whole entry): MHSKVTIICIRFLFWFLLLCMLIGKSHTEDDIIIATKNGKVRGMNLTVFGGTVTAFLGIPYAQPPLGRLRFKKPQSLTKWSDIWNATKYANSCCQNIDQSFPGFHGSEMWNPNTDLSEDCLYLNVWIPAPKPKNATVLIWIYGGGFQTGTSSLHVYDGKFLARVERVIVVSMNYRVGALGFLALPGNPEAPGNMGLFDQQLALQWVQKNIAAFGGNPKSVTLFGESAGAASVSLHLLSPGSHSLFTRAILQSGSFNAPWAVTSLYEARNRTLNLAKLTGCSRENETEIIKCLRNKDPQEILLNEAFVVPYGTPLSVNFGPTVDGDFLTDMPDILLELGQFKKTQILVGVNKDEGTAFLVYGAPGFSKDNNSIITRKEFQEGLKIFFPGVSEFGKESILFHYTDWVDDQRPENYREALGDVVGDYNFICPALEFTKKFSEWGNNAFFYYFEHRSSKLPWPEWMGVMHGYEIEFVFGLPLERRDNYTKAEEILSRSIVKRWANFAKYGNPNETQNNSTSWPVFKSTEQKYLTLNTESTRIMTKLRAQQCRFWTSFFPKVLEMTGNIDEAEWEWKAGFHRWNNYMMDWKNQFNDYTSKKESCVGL
Could you please report measured IC50 for the items listed next?
Give your result in µM as a bare value.

input: Record lookup: for UniProtKB P06276, what IC50 belongs to COc1cc2c(cc1OC)C(=O)C(CC1CCN(Cc3ccc4cccc(O)c4n3)CC1)C2 (stereo not given) ?
output: 37.4

input: Record lookup: for UniProtKB P06276, what IC50 belongs to COc1cc2c(cc1OC)C(=O)C(CC1CCN(Cc3ccc4ccccc4n3)CC1)C2 (stereo not given) ?
output: 6.35

input: Record lookup: for UniProtKB P06276, what IC50 belongs to COc1cc2c(cc1OC)C(=O)C(CC1CCN(Cc3ncc(C)cc3C)CC1)C2 (stereo not given) ?
output: 8.55

input: Record lookup: for UniProtKB P06276, what IC50 belongs to COC(=O)c1cccc(CN2CCC(CC3Cc4cc(OC)c(OC)cc4C3=O)CC2)n1 (stereo not given) ?
output: 25.4

input: Record lookup: for UniProtKB P06276, what IC50 belongs to COc1cc2c(cc1OC)C(=O)C(CC1CCN(Cc3ccc(C)cc3)CC1)C2 (stereo not given) ?
output: 43.8

input: Record lookup: for UniProtKB P06276, what IC50 belongs to COc1cc2c(cc1OC)C(=O)C(CC1CCN(Cc3ccc(F)cc3)CC1)C2 (stereo not given) ?
output: 8.13

input: Record lookup: for UniProtKB P06276, what IC50 belongs to COc1cc2c(cc1OC)C(=O)C(CC1CCN(Cc3ccccc3F)CC1)C2 (stereo not given) ?
output: 12.8

input: Record lookup: for UniProtKB P06276, what IC50 belongs to COc1cc2c(cc1OC)C(=O)C(CC1CCN(Cc3cccc(C(F)(F)F)c3)CC1)C2 (stereo not given) ?
output: 76.9

input: Record lookup: for UniProtKB P06276, what IC50 belongs to COc1cc2c(cc1OC)C(=O)C(CC1CCN(Cc3ccccn3)CC1)C2 (stereo not given) ?
output: 38.6

input: Record lookup: for UniProtKB P06276, what IC50 belongs to COc1cc2c(cc1OC)C(=O)C(CC1CCN(Cc3ncccc3C)CC1)C2 (stereo not given) ?
output: 49.2

* * *

# Assay System: Cholinesterase (Equus caballus)
# Sequence (P81908 whole entry): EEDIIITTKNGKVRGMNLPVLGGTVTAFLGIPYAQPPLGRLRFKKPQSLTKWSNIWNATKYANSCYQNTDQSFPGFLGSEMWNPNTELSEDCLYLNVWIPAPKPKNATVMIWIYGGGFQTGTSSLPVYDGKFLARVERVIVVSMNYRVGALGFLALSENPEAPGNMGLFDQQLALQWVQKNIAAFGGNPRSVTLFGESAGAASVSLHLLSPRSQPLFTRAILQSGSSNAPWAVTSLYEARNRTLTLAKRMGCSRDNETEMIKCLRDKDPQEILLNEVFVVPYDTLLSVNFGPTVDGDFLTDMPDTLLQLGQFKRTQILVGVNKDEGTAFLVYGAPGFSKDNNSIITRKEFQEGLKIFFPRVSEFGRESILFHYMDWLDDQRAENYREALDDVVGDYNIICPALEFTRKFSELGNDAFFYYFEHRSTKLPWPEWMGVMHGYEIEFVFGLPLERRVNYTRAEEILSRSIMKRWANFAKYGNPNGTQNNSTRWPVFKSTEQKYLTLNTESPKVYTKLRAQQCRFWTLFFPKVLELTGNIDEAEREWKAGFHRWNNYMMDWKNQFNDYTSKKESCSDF
Response field label takes YES when IC50 is strictly below 20 µM and NO in all other cases.

input: Confirm or reject: IC50 of COc1cc2c(cc1OC)C(=O)C(CC1CCN(Cc3ccccc3C)CC1)C2 (stereo not given) lies strictly below 20 µM
output: NO

input: Confirm or reject: IC50 of COc1cc2c(cc1OC)C(=O)C(CC1CCN(Cc3ccc4cccc(O)c4n3)CC1)C2 (stereo not given) lies strictly below 20 µM
output: YES

input: Confirm or reject: IC50 of COc1cc2c(cc1OC)C(=O)C(CC1CCN(Cc3ccccc3C(F)(F)F)CC1)C2 (stereo not given) lies strictly below 20 µM
output: NO

input: Confirm or reject: IC50 of COc1cc2c(cc1OC)C(=O)C(CC1CCN(Cc3ccc(Cl)cc3)CC1)C2 (stereo not given) lies strictly below 20 µM
output: NO

input: Confirm or reject: IC50 of COc1cc2c(cc1OC)C(=O)C(CC1CCN(Cc3ccccc3F)CC1)C2 (stereo not given) lies strictly below 20 µM
output: YES

input: Confirm or reject: IC50 of COc1cc2c(cc1OC)C(=O)C(CC1CCN(Cc3ccc(C(F)(F)F)cc3)CC1)C2 (stereo not given) lies strictly below 20 µM
output: YES

input: Confirm or reject: IC50 of COc1cc2c(cc1OC)C(=O)C(CC1CCN(Cc3ccc4ccccc4n3)CC1)C2 (stereo not given) lies strictly below 20 µM
output: YES

input: Confirm or reject: IC50 of COc1cc2c(cc1OC)C(=O)C(CC1CCN(Cc3cccc(C(F)(F)F)c3)CC1)C2 (stereo not given) lies strictly below 20 µM
output: YES

input: Confirm or reject: IC50 of COc1cc2c(cc1OC)C(=O)C(CC1CCN(Cc3ccc([N+](=O)[O-])cc3)CC1)C2 (stereo not given) lies strictly below 20 µM
output: YES
